assayed.target: ATP-dependent translocase ABCB1 (Homo sapiens, UniProt P08183)
Sequence (P08183 whole entry): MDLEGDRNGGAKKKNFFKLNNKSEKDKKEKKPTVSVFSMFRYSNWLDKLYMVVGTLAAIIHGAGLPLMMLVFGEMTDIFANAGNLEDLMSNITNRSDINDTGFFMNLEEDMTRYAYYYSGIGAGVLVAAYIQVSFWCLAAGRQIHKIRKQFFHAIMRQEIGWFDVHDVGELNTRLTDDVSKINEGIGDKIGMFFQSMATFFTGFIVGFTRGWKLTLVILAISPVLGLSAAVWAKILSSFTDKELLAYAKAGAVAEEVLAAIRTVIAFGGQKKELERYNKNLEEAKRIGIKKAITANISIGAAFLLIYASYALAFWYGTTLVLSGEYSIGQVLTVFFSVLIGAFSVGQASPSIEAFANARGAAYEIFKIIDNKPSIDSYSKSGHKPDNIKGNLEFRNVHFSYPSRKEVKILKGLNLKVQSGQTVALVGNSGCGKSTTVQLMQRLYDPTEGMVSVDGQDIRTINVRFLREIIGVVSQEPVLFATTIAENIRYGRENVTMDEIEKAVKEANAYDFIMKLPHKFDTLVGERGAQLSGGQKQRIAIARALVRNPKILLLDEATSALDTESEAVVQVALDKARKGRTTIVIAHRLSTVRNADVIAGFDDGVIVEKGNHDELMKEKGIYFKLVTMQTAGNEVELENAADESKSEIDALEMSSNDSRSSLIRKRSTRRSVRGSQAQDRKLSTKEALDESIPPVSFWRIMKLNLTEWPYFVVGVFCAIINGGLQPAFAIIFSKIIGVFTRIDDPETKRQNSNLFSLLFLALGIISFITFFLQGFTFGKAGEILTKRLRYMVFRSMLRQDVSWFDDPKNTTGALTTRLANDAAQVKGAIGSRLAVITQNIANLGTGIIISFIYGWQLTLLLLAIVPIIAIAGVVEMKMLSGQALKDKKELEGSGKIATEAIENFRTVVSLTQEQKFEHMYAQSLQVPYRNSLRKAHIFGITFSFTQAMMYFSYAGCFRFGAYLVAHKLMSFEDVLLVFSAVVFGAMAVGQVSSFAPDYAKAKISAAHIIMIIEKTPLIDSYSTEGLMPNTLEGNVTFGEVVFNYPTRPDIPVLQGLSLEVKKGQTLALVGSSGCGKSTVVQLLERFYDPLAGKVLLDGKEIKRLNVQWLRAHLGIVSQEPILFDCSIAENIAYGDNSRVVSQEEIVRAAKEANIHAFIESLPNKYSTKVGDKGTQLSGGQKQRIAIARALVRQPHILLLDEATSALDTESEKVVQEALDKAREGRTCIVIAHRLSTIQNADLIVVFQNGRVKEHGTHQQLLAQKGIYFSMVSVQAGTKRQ
protocol.summary: Reversal of P-gp-mediated multidrug resistance in human KBV cells assessed as potentiation of paclitaxel-induced cytotoxicity by measuring cell survival at 10 uM after 72 hrs by MTT assay (reference value: 104 +/- 8%)
Assay type: cell-based
Parameter threshold = 50%. Response is TRUE when Survival meets or exceeds it, else FALSE.

Entry CC(C)(O)[C@@H]1CC[C@@](C)([C@H]2CC[C@]3(C)[C@@H]2[C@H](O)C[C@@H]2[C@@]4(C)CC[C@H](NC(=O)c5ccccc5)C(C)(C)[C@@H]4CC[C@]23C)O1 : is its Survival no less than 50%?
FALSE

Entry CC(C)(C)OC(=O)Nc1ccc(C(=O)N[C@H]2CC[C@]3(C)[C@H]4C[C@@H](O)[C@@H]5[C@@H]([C@]6(C)CC[C@H](C(C)(C)O)O6)CC[C@@]5(C)[C@]4(C)CC[C@H]3C2(C)C)cc1 : is its Survival no less than 50%?
FALSE

Entry CC(C)(O)[C@H]1CC[C@@](C)([C@H]2CC[C@]3(C)[C@@H]2[C@H](O)C[C@@H]2[C@@]4(C)CC[C@H](N)C(C)(C)[C@@H]4CC[C@]23C)O1 : is its Survival no less than 50%?
FALSE

Entry CC(C)(C)OC(=O)NCC(=O)N[C@H]1CC[C@]2(C)[C@H]3C[C@@H](O)[C@@H]4[C@@H]([C@]5(C)CC[C@@H](C(C)(C)O)O5)CC[C@@]4(C)[C@]3(C)CC[C@H]2C1(C)C : is its Survival no less than 50%?
FALSE

Entry CC(C)(C)OC(=O)NCCCCCC(=O)N[C@H]1CC[C@]2(C)[C@H]3C[C@@H](O)[C@@H]4[C@@H]([C@]5(C)CC[C@H](C(C)(C)O)O5)CC[C@@]4(C)[C@]3(C)CC[C@H]2C1(C)C : is its Survival no less than 50%?
FALSE

Entry CC(C)(O)[C@H]1CC[C@@](C)([C@H]2CC[C@]3(C)[C@@H]2[C@H](O)C[C@@H]2[C@@]4(C)CC[C@H](O)C(C)(C)[C@@H]4CC[C@]23C)O1 : is its Survival no less than 50%?
TRUE

Entry CC(C)(O)[C@H]1CC[C@@](C)([C@H]2CC[C@]3(C)[C@@H]2[C@H](O)C[C@@H]2[C@@]4(C)CC[C@H](NC(=O)c5ccc(N)cc5)C(C)(C)[C@@H]4CC[C@]23C)O1 : is its Survival no less than 50%?
FALSE

Entry CC(C)(O)[C@H]1CC[C@@](C)([C@H]2CC[C@]3(C)[C@@H]2[C@H](O)C[C@@H]2[C@@]4(C)CC[C@H](NC(=O)c5ccccc5C(=O)O)C(C)(C)[C@@H]4CC[C@]23C)O1 : is its Survival no less than 50%?
TRUE

Entry CC(C)(O)[C@@H]1CC[C@@](C)([C@H]2CC[C@]3(C)[C@@H]2[C@H](O)C[C@@H]2[C@@]4(C)CC[C@H](NC(=O)CCCCCN)C(C)(C)[C@@H]4CC[C@]23C)O1 : is its Survival no less than 50%?
TRUE
